Target: Neurogenic locus notch homolog protein 2 (Homo sapiens)
Assay: Notch2 binders on small-molecule microarrays, primary screen, biochemical, small-molecule microarray, 635 nm fluorescence, stem cell growth factors (AID 1073)
Settings: Notch2 binding, higher = more signal
Values of composite z-score greater than or equal to 1 map to label 1; values below map to label 0.

Compound | Classification
CC(C)=CCCC(C)=CCON=C1C[C@@H](O)[C@@H](O)[C@@H]2[C@@H]3C(=O)N(C4CCCCC4)C(=O)[C@@H]3CC[C@@H]12 | label 0
COC(=O)[C@@H]1CC[C@H](C)[C@@H](c2ccc(C)cc2)N1C(=O)c1ccc(C=NO[C@H](C)c2cn([C@@H]3COC[C@H]3O)nn2)cc1 | label 1
CCN1C(=O)[C@H]2[C@H]3[C@H](O)[C@H](O)CC(=O)[C@H]3CC[C@H]2C1=O | label 0
CCOC(=O)[C@H](Cc1ccccc1)NC(=O)OC1CC(CCC2CC(CC)=NO2)OC2(CCCC(COC(=O)NCCC(C)C)O2)C1 (some centres not stated) | label 0
O=C(C=Cc1ccc2c(c1)OCO2)c1ccc(F)cc1 | label 0
CC(CCN1CCCc2nc(C)c(C)cc21)=NOC(C)CN1CCCCc2nc(C)c(C)cc21 (configuration not stated) | label 1
CC(C)C[C@H](NC(=O)CCC1CC(OC(=O)NCc2cccc3ccccc23)CC2(CCCC(COC(=O)NCc3ccccc3)O2)O1)C(=O)NCC(c1ccccc1)c1ccccc1 (some centres not stated) | label 1

This collection of values is drawn from PubChem BioAssay.
